B1: TMEM59 peptide (residues 268–280), wild type [modified: long spacer (Tds) at the N-terminal end, used for immobilisation; long spacer (Tds) at the N-terminal end, used for immobilisation] [not stated] / GST-HA-ATG16L1(231–607) … (parent)
chain 1: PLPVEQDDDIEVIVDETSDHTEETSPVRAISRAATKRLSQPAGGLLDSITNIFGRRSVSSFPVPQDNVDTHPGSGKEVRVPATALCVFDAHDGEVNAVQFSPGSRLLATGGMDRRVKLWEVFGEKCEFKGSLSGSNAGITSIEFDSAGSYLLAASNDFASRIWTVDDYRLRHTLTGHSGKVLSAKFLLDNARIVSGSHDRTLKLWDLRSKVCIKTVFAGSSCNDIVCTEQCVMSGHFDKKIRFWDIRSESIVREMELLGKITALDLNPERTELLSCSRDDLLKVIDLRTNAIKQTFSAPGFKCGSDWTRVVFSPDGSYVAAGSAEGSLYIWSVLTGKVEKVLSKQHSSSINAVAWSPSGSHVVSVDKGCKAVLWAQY
chain 2: YVPSEKLSIYGDL

Variants of: B1
PROTOCOL_DETAILS: peptide microarray
CONDITION_INFO: with GST-HA-ATG16L1(231–607) [human]; ligand 800, 600, 400 nM; parent: 100
QUANTITY: percent of parent (% WT)

| VARIANT_ANNOTATION | VALUE_UNIT | READING |
| --- | --- | --- |
| chain 2 G11H | % WT | 156 |
| chain 2 Y1V | % WT | 16 |
| chain 2 I9L | % WT | 95 |
| chain 2 V2N | % WT | 25 |
| chain 2 I9V | % WT | 109 |

1: chain 2 L7N
2: chain 2 V2W
**Q:** Rank 1 against 2 by their percent of parent values and give the higher one. Response format: the label of the selected entry.
**A:** 2
